biological target: Phosphatidylinositol 4,5-bisphosphate 3-kinase catalytic subunit alpha isoform (Homo sapiens, UniProt P42336); test: Inhibition of recombinant PI3Kalpha (unknown origin) using PIP2:3PS as substrate preincubated for 20 mins followed by ATP addition and measured after 1 hrs by ADP-Glo reagent based assay
Sequence (P42336 whole entry, canonical isoform): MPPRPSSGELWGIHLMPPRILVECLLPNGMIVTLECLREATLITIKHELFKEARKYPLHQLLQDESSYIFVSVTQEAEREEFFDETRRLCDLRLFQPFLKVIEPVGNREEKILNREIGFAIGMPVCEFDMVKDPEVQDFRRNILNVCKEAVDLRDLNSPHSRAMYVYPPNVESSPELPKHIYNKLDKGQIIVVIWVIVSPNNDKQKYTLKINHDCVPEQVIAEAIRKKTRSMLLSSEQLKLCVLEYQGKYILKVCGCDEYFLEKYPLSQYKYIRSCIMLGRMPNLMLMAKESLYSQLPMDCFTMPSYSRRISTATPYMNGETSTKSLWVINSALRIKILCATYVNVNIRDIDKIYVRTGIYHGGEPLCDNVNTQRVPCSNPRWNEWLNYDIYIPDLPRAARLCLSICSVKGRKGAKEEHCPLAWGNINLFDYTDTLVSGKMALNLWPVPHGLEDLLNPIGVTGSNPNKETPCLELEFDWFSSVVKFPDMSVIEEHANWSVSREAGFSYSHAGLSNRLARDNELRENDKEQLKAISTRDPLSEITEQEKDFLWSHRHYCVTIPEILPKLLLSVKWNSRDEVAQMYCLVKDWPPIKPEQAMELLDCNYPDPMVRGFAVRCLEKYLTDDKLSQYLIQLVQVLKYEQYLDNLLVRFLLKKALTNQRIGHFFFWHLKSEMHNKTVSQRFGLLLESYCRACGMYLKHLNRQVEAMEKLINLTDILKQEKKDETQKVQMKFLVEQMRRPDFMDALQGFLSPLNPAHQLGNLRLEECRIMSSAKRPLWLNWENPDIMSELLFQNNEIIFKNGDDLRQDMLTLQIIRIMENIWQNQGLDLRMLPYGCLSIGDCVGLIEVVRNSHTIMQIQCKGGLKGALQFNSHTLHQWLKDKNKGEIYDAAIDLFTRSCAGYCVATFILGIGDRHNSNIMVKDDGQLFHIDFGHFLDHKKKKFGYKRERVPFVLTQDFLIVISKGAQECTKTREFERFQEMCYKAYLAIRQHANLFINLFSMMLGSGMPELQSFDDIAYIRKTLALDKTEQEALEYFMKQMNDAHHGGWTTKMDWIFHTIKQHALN
pIC50: −log10 of the molar value.
propertyMeasured: pIC50

structureString	pIC50
COc1ncc(-c2ccc3ncnc(N[C@H]4CCN(C(=O)C5CCOCC5)C4)c3c2)cc1C(=O)Oc1ccc(C)cc1	6.84
COc1ncc(-c2ccc3ncnc(N[C@H]4CCN(C(=O)C5CCOCC5)C4)c3n2)cc1C(=O)Oc1cccnc1	6.60
COc1ncc(-c2ccc3ncnc(N[C@H]4CCN(C(=O)C5CCOCC5)C4)c3c2)cc1C(=O)Oc1ccc([N+](=O)[O-])cc1	6.92
COc1ncc(-c2ccc3ncnc(N[C@H]4CCN(C(=O)C5CCOCC5)C4)c3c2)cc1C(=O)Oc1ccc(Cl)cc1Cl	6.46
COc1ncc(-c2ccc3ncnc(N[C@H]4CCN(C(=O)C5CCOCC5)C4)c3c2)cc1C(=O)Oc1ccc(F)cc1	7.59
COc1ncc(-c2ccc3ncnc(N[C@H]4CCN(C(=O)C5CCOCC5)C4)c3n2)cc1C(=O)Oc1ccc(F)cc1	7.85
COc1ncc(-c2ccc3ncnc(N[C@H]4CCN(C(=O)C5CCOCC5)C4)c3n2)cc1C(=O)Oc1ccc([N+](=O)[O-])cc1	7.98
COc1ncc(-c2ccc3ncnc(N[C@H]4CCN(C(=O)C5CCOCC5)C4)c3n2)cc1C(=O)Oc1ccc(C)cc1	7.87
COc1ncc(-c2ccc3ncnc(N[C@H]4CCN(C(=O)C5CCOCC5)C4)c3n2)cc1C(=O)Oc1ccc(C(F)(F)F)cc1	7.03
COc1ncc(-c2ccc3ncnc(N[C@H]4CCN(C(=O)C5CCOCC5)C4)c3c2)cc1C(=O)Oc1ccccc1	7.18

a: COc1ncc(-c2ccc3ncnc(N[C@H]4CCN(C(=O)C5CCOCC5)C4)c3c2)cc1C(=O)Oc1c(F)cc(F)cc1F
b: COc1ncc(-c2ccc3ncnc(N[C@H]4CCN(C(=O)C5CCOCC5)C4)c3c2)cc1C(=O)Oc1cccnc1
c: COc1ncc(-c2ccc3ncnc(N[C@H]4CCN(C(=O)C5CCOCC5)C4)c3c2)cc1C(=O)Oc1ccc(C(F)(F)F)cc1
d: COc1ccc(OC(=O)c2cc(-c3ccc4ncnc(N[C@H]5CCN(C(=O)C6CCOCC6)C5)c4n3)cnc2OC)cc1
Your job: order these 4 records by pIC50, ascending. # list labels per requested ordering b, c, a, d

Taken from ChEMBL document CHEMBL6127139.
